- Test system: parasites (ring stage, in human red blood cell culture)
- Method notes: Parasite LDH growth assay (antiparasite potency, Parasite Assay)
- Assay type: cell-based, Plasmodium falciparum
- Recorded conditions: Plasmodium falciparum, Erythrocyte, 72 h, 0.7% rings, 2% haematocrit, 72 hours at 37° C., LDH readout of parasite growth

Molecule	EC50 / nM
CCC1(CC)CC(=O)N([C@H]2c3cc(C(=O)N[C@@H]4c5ccccc5OC(C)(C)[C@H]4O)ccc3OC[C@H]2COC)C(=N)N1	0.5
CCC1(CC)CC(=O)N([C@H]2c3cc(C(=O)N[C@@H]4c5ccccc5OC[C@]4(C)O)ccc3O[C@]2(C)COC)C(=N)N1	12.2
CCC1(CC)CC(=O)N([C@H]2c3cc(C(=O)N[C@@H]4c5ccccc5C[C@H]4O)ccc3O[C@@]2(C)COC)C(=N)N1 [Example 75A]	0.4
CCC1(CC)CC(=O)N([C@@H]2CCOc3ccc(C(=O)NC4c5ccccc5CC4(F)F)cc32)C(=N)N1 (stereo partly shown)	7.7
CC(C)[C@]1(C)CC(=O)N([C@@H]2CC(C)(C)Oc3ccc(C(=O)N[C@@H]4c5ccccc5C[C@H]4O)cc32)C(=N)N1 [Example 39A]	29.9
CCC1(CC)CC(=O)N([C@@H]2CCCc3ccc(C(=O)N[C@@H]4c5ccccc5OC[C@H]4O)cc32)C(=N)N1	2.1
CCC1(CC)CC(=O)N([C@H]2c3cc(C(=O)N[C@@H]4c5ccccc5OC[C@@]4(C)O)ccc3OC[C@H]2COC)C(=N)N1	1.9
CCC1(CC)CC(=O)N(C2c3cc(C(=O)N[C@@H]4c5ccccc5C[C@@]4(C)O)ccc3OC2(COC)COC)C(=N)N1 (stereo partly shown)	241
COCC1(C)Oc2ccc(C(=O)N[C@@H]3c4ccccc4OC[C@@]3(C)O)cc2C1N1C(=N)NC(C)(C)CC1=O (stereo partly shown)	208
CC[C@]1(C)CC(=O)N([C@H]2c3cc(C(=O)N[C@@H]4c5ccccc5OC(C)(C)[C@H]4O)ccc3OC[C@@H]2OC)C(=N)N1	3.3
CC1(C)CC(=O)N(C2c3cc(C(=O)N[C@H]4CC(C)(C)Oc5ccccc54)ccc3OCC2O)C(=N)N1 (stereo partly shown)	194
CCC1(CC)CC(=O)N([C@@H]2C[C@H](OC)c3ccc(C(=O)N[C@@H]4c5ccccc5C[C@@]4(C)O)cc32)C(=N)N1	0.9
CCC1(CC)CC(=O)N([C@@H]2C[C@@H](COCCOCCOCCN)Oc3ccc(C(=O)N[C@H]4CC(C)(C)Oc5ccccc54)cc32)C(=N)N1	211

* * *

- System: parasites (ring stage, in human red blood cell culture)
- Method notes: Parasite LDH growth assay (antiparasite potency, Parasite Assay)
- Format: cell-based, Plasmodium falciparum
- Recorded conditions: Plasmodium falciparum, Erythrocyte, 72 h, 0.7% rings, 2% haematocrit, 72 hours at 37° C., LDH readout of parasite growth
# note: boundary value 6 nM maps to Criterion not met; EC50 below it maps to Criterion met

Compound	Class
CCC1(CC)CC(=O)N([C@@H]2CCOc3ccc(C(=O)N[C@H]4CC(C)(C)Oc5ccc(C#N)cc54)cc32)C(=N)N1 [Example 21A]	Criterion met
CCC1(CC)CC(=O)N([C@H]2c3cc(C(=O)N[C@H]4CC(C)(C)Oc5ccccc54)ccc3OC2(COC)COC)C(=N)N1	Criterion met
CCC1(CC)CC(=O)N([C@@H]2CCOc3ccc(C(=O)N[C@@H]4CC(C)(C)Oc5ccc(F)cc54)cc32)C(=N)N1	Criterion not met
CC1(C)CC(=O)N([C@@H]2CCS(=O)(=O)c3ccc(C(=O)N[C@@H]4c5ccccc5OC(C)(C)[C@H]4O)cc32)C(=N)N1	Criterion not met
CCC1(CC)CC(=O)N([C@@H]2CCCc3ccc(C(=O)N[C@@H]4c5ccccc5OC(C)(C)[C@H]4O)cc32)C(=N)N1	Criterion met
CCC1(CC)CC(=O)N([C@@H]2CC(C)(C)Oc3ccc(C(=O)N[C@@H]4c5ccccc5OC(C)(C)[C@H]4O)cc32)C(=N)N1 [Example 34A]	Criterion met
